- System: C. elegans
- experimental.setup: Table S2, C. elegans SS assay, 110 μM, 0 h, averages of 4 data points
reported.endpoint: Percentage of motility inhibition 0 h (%)
Field format: number, assumed %, no unit text.

In plain terms, C[C@@H](O)[C@H]1C(=O)N2C(C(=O)[O-])=C(S[C@@H]3CN[C@H](C(=O)Nc4cccc(C(=O)O)c4)C3)[C@H](C)[C@H]12.[Na+] [Ertapenem sodium] has a documented Percentage of motility inhibition 0 h of 0

In plain terms, `C=C(C)C(=O)O[C@H]1CC2=C[C@@H](C/C(C)=C/[C@H]3OC(=O)C(=C)[C@H]13)OC2=O` has a documented Percentage of motility inhibition 0 h of 0

In plain terms, `CC1(C)[C@@H](O[C@@H]2O[C@H](C(=O)O)[C@@H](O)[C@H](O)[C@H]2O[C@@H]2O[C@H](C(=O)O)[C@@H](O)[C@H](O)[C@H]2O)CC[C@]2(C)[C@H]3C(=O)C=C4[C@@H]5C[C@](C)(C(=O)O)CC[C@]5(C)CC[C@@]4(C)[C@]3(C)CC[C@@H]12` has a documented Percentage of motility inhibition 0 h of 0

---

- Tested on: C. elegans
- measurement.protocol: microbe, parasite or virus in culture
- experimental.setup: Caenorhabditis elegans, 24 h, read-out: Percentage of motility inhibition 24 h, Table S2, C. elegans SS assay, 110 μM, 24 h, averages of 4 data points
Assign inhibition at 110 µM to each entry below.
Field format: number, assumed %, no unit text.

In plain terms, CC(C)(C)NC(=O)N[C@H](C(=O)N1C[C@H]2[C@@H]([C@H]1C(=O)NC(CC1CCC1)C(=O)C(N)=O)C2(C)C)C(C)(C)C (stereo partly shown) has a documented inhibition at 110 µM of 39

In plain terms, `CC[C@@H]([C@H](C)O)n1ncn(-c2ccc(N3CCN(c4ccc(OC[C@@H]5CO[C@@](Cn6cncn6)(c6ccc(F)cc6F)C5)cc4)CC3)cc2)c1=O` has a documented inhibition at 110 µM of 0

In plain terms, COc1cc(/C=C/C(=O)O[C@H]2CC[C@]34C[C@]35CC[C@]3(C)[C@@H]([C@H](C)CCC=C(C)C)CC[C@@]3(C)[C@@H]5CC[C@H]4C2(C)C)ccc1O [Cycloartenyl ferulate] has a documented inhibition at 110 µM of 21

In plain terms, `O=c1ccc2ccccc2o1` has a documented inhibition at 110 µM of 8

---

- Tested on: C. elegans
- measurement.protocol: microbe, parasite or virus in culture
- experimental.setup: Caenorhabditis elegans, 0 h, read-out: Percentage of motility inhibition 0 h, Table S2, C. elegans SS assay, 110 μM, 0 h, averages of 4 data points
reported.endpoint: inhibition at 110 µM (%)
Field format: number, assumed %, no unit text.

In plain terms, C[C@]12CC[C@@H]3c4ccc(O)cc4CC[C@H]3[C@@H]1CCC2=O [Estrone] has a documented inhibition at 110 µM of 32

In plain terms, O=C(NCNC(=O)NC1C(=O)NC(=O)N1CO)NC1C(=O)NC(=O)N1CO (stereo not drawn) [Imidazolidinyl urea] has a documented inhibition at 110 µM of 28

In plain terms, CC[C@@]1(O)C(=O)OCc2c1cc1n(c2=O)Cc2cc3cc(O)ccc3nc2-1 [(S)‐10‐Hydroxycamptothecin] has a documented inhibition at 110 µM of 0

In plain terms, CC(=O)O[C@@H]1C[C@]23C4=CC[C@@]5(C)[C@H](C(=O)O)[C@@](C)([C@H](C)C(C)C)CC[C@]5(C)[C@H]4CC[C@H]2[C@@](C)(COC3O)[C@H]1O[C@@H]1O[C@H](CO)[C@@H](O)[C@H](O)[C@H]1O (stereo partly drawn) [Enfumafungin] has a documented inhibition at 110 µM of 0

In plain terms, CC(C)=CCC[C@](C)(O[C@@H]1O[C@H](CO)[C@@H](O)[C@H](O)[C@H]1O)[C@H]1CC[C@]2(C)[C@@H]1[C@H](O)C[C@@H]1[C@@]3(C)CC[C@H](O)C(C)(C)[C@@H]3[C@@H](O)C[C@]12C [Ginsenoside F1] has a documented inhibition at 110 µM of 10

In plain terms, O=C1NCN(c2ccccc2)C12CCN(CCCOc1ccc(F)cc1)CC2 [Spiramide] has a documented inhibition at 110 µM of 49
